B1: EPB41L3 (parent)
chain: FRFAPNHTKELEDKVIELHKSHRG

Variants of: B1
assay.method.text: protein stability index of a GFP-peptide fusion (GPS, HEK-293T) (PSI 1-6); higher = more stable;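 further: lentivirally expressed fusions sorted by FACS into six bins by GFP to DsRed ratio, PSI derived from sequencing read proportions per bin multiplied by bin number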
condition.notes: c terminus: a fixed tail appended
Lab note: anything with protein stability index at or over 2 counts as class 1; the rest go in class 0.

variant.identifier | classification
R2W | class 1
F3N | class 1
V15F | class 1
G24V | class 0
A4I | class 1
N6M | class 0
I16E | class 1
G24K | class 1
T8H | class 0
H7A | class 1
H22L | class 0
H7T | class 0
I16M | class 1
H22K | class 0
L11Q | class 1
K14Y | class 1
E12S | class 1
H22S | class 1
R23W | class 0
H7W | class 0
S21M | class 1
K14L | class 0
L18Q | class 1
L18P | class 0
R2T | class 1
F3G | class 1
L18D | class 1
H19V | class 0
A4L | class 1
E10I | class 1
V15W | class 0
L11T | class 1
L18H | class 0
E17P | class 1
P5A | class 1
I16K | class 1
E17S | class 1
E17I | class 1
P5Q | class 1
E12M | class 0
F3Y | class 1
R23E | class 1
T8E | class 1
H22D | class 1
R2L | class 1
E10Q | class 0
A4Q | class 1
E12T | class 0
H7Y | class 1
S21I | class 1
K20L | class 1
R2K | class 1
E17M | class 1
G24A | class 0
E10D | class 0
H19T | class 0
F3D | class 1
H7F | class 0
E10F | class 0
K9A | class 0
V15I | class 1
D13F | class 0
E17N | class 1
R2E | class 1
K9W | class 1
P5M | class 1
K20Y | class 1
K20F | class 0
L18V | class 0
A4W | class 1
D13T | class 0
A4M | class 1
L18F | class 0
K9I | class 1
S21H | class 0
K14Q | class 0
I16T | class 1
R2V | class 1
H7L | class 0
N6G | class 1
E10T | class 0
L18I | class 1
L11I | class 1
